test system: Cricetinae gen. sp.; assay: Mean effect on normal liver weight (mg) in Entamoeba histolytica infected hamsters (treated at 10 mg/kg ip once a day for 5 days); format: functional, Cricetulus griseus; details: route intraperitoneal
Give Mean effect for every item shown.
Value and unit, in that order.

I'd like to know its Mean effect. The compound in question is CCCCCCCCCCC(O)(P(=O)(O)O)P(=O)(O)O
2163 mg

I'd like to know its Mean effect. The compound in question is CN(CCCCc1ccccc1)CCC(O)(P(=O)(O)O)P(=O)(O)O
1756 mg

I'd like to know its Mean effect. The compound in question is O=P(O)(O)C(Nc1cccc(-c2ccccc2)c1)P(=O)(O)O
2459 mg

I'd like to know its Mean effect. The compound in question is O=P(O)(O)C(Nc1cc(Br)cc(Br)n1)P(=O)(O)O
2883 mg

I'd like to know its Mean effect. The compound in question is CN(CCOc1ccccc1)CCC(O)(P(=O)(O)O)P(=O)(O)O
2295 mg

###

assay: in vitro; settings: human, KB cells (nasopharyngeal carcinoma)
Description: Toxicity evaluated against human nasopharyngeal carcinoma KB cell line
Give CC50 for every item shown.

I'd like to know its CC50. The molecule in question is CCCCCCCCCCCCCCCCCC(O)(P(=O)(O)O)P(=O)(O)O
< 0.65 µM

I'd like to know its CC50. The molecule in question is NCCCCC(O)(P(=O)(O)O)P(=O)(O)O
91 µM

I'd like to know its CC50. The molecule in question is CCCCCC(C)NC(P(=O)(O)O)P(=O)(O)O (configuration not stated)
> 989 µM

I'd like to know its CC50. The molecule in question is O=P(O)(O)C(NC1CCCCCC1)P(=O)(O)O [INCADRONIC ACID]
166 µM

I'd like to know its CC50. The molecule in question is O=P(O)(O)C(Nc1cc(Cl)cc(Cl)c1)P(=O)(O)O
314 µM

I'd like to know its CC50. The molecule in question is O=P(O)(O)C(N1CCCCC1)P(=O)(O)O
> 1090 µM

I'd like to know its CC50. The molecule in question is CC(C)N(C(C)C)C(P(=O)(O)O)P(=O)(O)O
852 µM

I'd like to know its CC50. The molecule in question is CCc1cccc(NC(P(=O)(O)O)P(=O)(O)O)c1
> 1020 µM

I'd like to know its CC50. The molecule in question is O=P(O)(O)C(O)(CSc1ccncc1)P(=O)(O)O
> 746 µM

I'd like to know its CC50. The molecule in question is O=P(O)(O)C(O)(CCNCCCCc1ccccc1)P(=O)(O)O
> 727 µM

I'd like to know its CC50. The molecule in question is O=P(O)(O)C(Nc1c(F)c(F)c(F)c(F)c1F)P(=O)(O)O
> 779 µM

I'd like to know its CC50. The molecule in question is CN(CCCCc1ccccc1)CCC(O)(P(=O)(O)O)P(=O)(O)O
> 690 µM

###

Give log10 Mean effect for every item shown.
system: Cricetinae gen. sp.; test: Mean effect on amebic liver abscess (mg) formation in Entamoeba histolytica infected hamsters (treated at 10 mg/kg ip once a day for 5 days); format: functional, Cricetulus griseus; conditions: route intraperitoneal
Note the log scale: values are log10 of Mean effect expressed in mg.

I'd like to know its log10 Mean effect. The compound in question is O=P(O)(O)C(Nc1cccc(-c2ccccc2)c1)P(=O)(O)O
2.76

I'd like to know its log10 Mean effect. The compound in question is CCCCCCCCCCC(O)(P(=O)(O)O)P(=O)(O)O
2.45

I'd like to know its log10 Mean effect. The compound in question is CN(CCOc1ccccc1)CCC(O)(P(=O)(O)O)P(=O)(O)O
3.02

I'd like to know its log10 Mean effect. The compound in question is CN(CCCCc1ccccc1)CCC(O)(P(=O)(O)O)P(=O)(O)O
1.97

I'd like to know its log10 Mean effect. The compound in question is O=P(O)(O)C(Nc1cc(Br)cc(Br)n1)P(=O)(O)O
2.88
